Exercise: state measured Growth Rate for each of the compounds provided.
Tested on: U2OS
Assay: Incucyte cell viability with U2OS; note: filed as whole numbers so only -1 and 0 and 1 occur
Type: toxicity, cell-based
Conditions: human, 18 h, 10 µM, compound concentration 10 uM, replicate number 2, timepoint 18 hours
Give bare numbers.

>  <compound>
Cc1cc(C(=O)N2Cc3cnn(C)c3Nc3ccccc32)ccc1CNC(=O)N1CCC[C@H]1C(=S)N1CCCN(C)CC1

>  <Growth Rate>
1

$$$$
>  <compound>
COc1ccc(/C=C/CCCCOc2ccc(C(=O)c3cccc(C(=O)O)c3)cc2CCC(=O)O)cc1

>  <Growth Rate>
0

$$$$

Count: 2. Required value per item: Growth Rate.
1. CNc1cc2[nH]c(=O)n(-c3ccc(NC(=O)NS(=O)(=O)c4ccc(Cl)s4)cc3)c(=O)c2cc1F
2. COc1cc2c(Nc3ccc(NC(=O)c4ccccc4)cc3)ncnc2cc1OCCCN1CCOCC1

Result string:
1. 1
2. 1

// provenance: ChEMBL document CHEMBL4689842
